Value source: the supplement of paper PMC10011410

Tested on: U-2 OS
Experiment: relative cell count vs DMSO (cell painting) (fraction of DMSO control); higher = more cells remaining (less cytotoxic)
Conditions: 5 µM; 24 h
Output satisfied for relative cell count not less than 0.7; output not satisfied otherwise.

Compound | Test target | Assigned label
Nc1nc(Cl)nc2c1ncn2[C@H]1C[C@H](O)[C@@H](CO)O1 | U-2 OS | not satisfied
Cc1cnc(CNC(=O)c2c(=O)c3ccc(N4CCCN(C)CC4)nc3n3c2sc2ccccc23)cn1 | U-2 OS | not satisfied
Cc1nc(Nc2ncc(C(=O)Nc3c(C)cccc3Cl)s2)cc(N2CCN(CCO)CC2)n1 | U-2 OS | satisfied
CCCCc1c(-c2ccc(OC)cc2)[nH]c2nccnc12 | U-2 OS | satisfied
COc1ccc(N(C(=O)CCl)C(C(=O)NCCc2ccccc2)c2cccs2)cc1Cl (stereo unspecified) | U-2 OS | not satisfied
Cc1onc(C(=O)N2CCN(C(c3ccc(Cl)cc3)c3ccc(Cl)cc3)CC2)c1[N+](=O)[O-] | U-2 OS | satisfied
CC1=NN(c2ccc(C(=O)O)cc2)C(=O)/C1=C\c1ccc(-c2cc(C)c(C)cc2[N+](=O)[O-])o1 | U-2 OS | satisfied
COc1ccc(/C=C/C(=O)O[C@@H]2[C@H](O[C@@H]3O[C@@H](C)[C@H](O)[C@@H](O)[C@H]3O)[C@@H](O[C@@H]3O[C@@H](C)[C@H](O[C@@H]4OC[C@@H](O[C@@H]5O[C@H](CO)[C@H](O)[C@H](O)[C@H]5O)[C@H](O)[C@H]4O)[C@@H](O)[C@H]3O)[C@H](OC(=O)[C@]34CCC(C)(C)C[C@H]3C3=CC[C@@H]5[C@@]6(C)C[C@H](O)[C@H](O[C@@H]7O[C@H](CO)[C@@H](O)[C@H](O)[C@H]7O)[C@@](C)(C(=O)O)[C@@H]6CC[C@@]5(C)[C@]3(CO)CC4)O[C@@H]2C)cc1 | U-2 OS | not satisfied
Oc1cccc(-c2nc(N3CCOCC3)c3oc4ncccc4c3n2)c1 | U-2 OS | satisfied
C/C(=C\c1csc(C)n1)[C@@H]1C[C@@H]2O[C@]2(C)CCC[C@H](C)[C@H](O)[C@@H](C)C(=O)C(C)(C)[C@@H](O)CC(=O)O1 | U-2 OS | not satisfied
C=CC(=O)Nc1cccc(Nc2nc(Nc3ccc(Oc4ccnc(C(=O)NC)c4)cc3)ncc2F)c1 | U-2 OS | satisfied
CN(C)/N=N/c1nc[nH]c1C(N)=O | U-2 OS | satisfied
COc1cc(=O)oc(/C=C/C=C/C=C/C(C)=C/[C@]2(C)O[C@H](C)[C@](C)(O)[C@H]2O)c1C | U-2 OS | satisfied
CC(C)C[C@H](NC(=O)[C@H](CCc1ccccc1)NC(=O)CN1CCOCC1)C(=O)N[C@@H](Cc1ccccc1)C(=O)N[C@@H](CC(C)C)C(=O)[C@@]1(C)CO1 | U-2 OS | not satisfied
Oc1cccc(O)c1O | U-2 OS | satisfied
CC(=O)N[C@@H](CCCCNC(=O)CSCCNC(=O)CCNC(=O)[C@H](O)C(C)(C)COP(=O)(O)OP(=O)(O)OC[C@H]1O[C@@H](n2cnc3c(N)ncnc32)[C@H](O)[C@@H]1OP(=O)(O)O)C(N)=O.O=C(O)C(F)(F)F | U-2 OS | satisfied
